Reference source for all entries: PubChem BioAssay AID588372

system: West Nile virus infected cells, antiviral inhibition; assay: antiviral activity against West Nile virus in cells, dose response, cell-based, EC_2 (AID 588372)
Results filed as inconclusive are left out.
endpoint: IC50

compound_smiles	IC50
O=C(CSc1nc2ccccc2c(=O)n1-c1ccc(F)c(F)c1)Nc1ccc2c(c1)CCC2	5.72 µM

Query: Bench note: what IC50 did O=C(CSc1nc2ccccc2c(=O)n1-c1cc(F)c(F)c(F)c1)Nc1ccc2c(c1)CCC2 show?
Response: 5.27 µM

Query: Bench note: what IC50 did O=C(CSc1nc2ccccc2c(=O)n1-c1cc(Cl)cc(Cl)c1)Nc1ccc2c(c1)CCC2 show?
Response: 2.1 µM

Query: Bench note: what IC50 did O=C(CSc1nc2ccccc2c(=O)n1-c1ccc(F)c(Cl)c1)Nc1ccc2c(c1)CCC2 show?
Response: 9.05 µM
